B1: EEHEE_rd4_0763 (parent)
chain: LTVHVGNVTYHFDNPEQAEEWAKRMAKKYQGQIHVKDGQFRIE

variants of: B1; assay: folding stability dG (cDNA display proteolysis); higher = more stable; details: PBS, room temperature
Criterion: folding stability dG meeting or surpassing 6 kJ/mol. Met: Satisfied. Not met: Not satisfied.

As a guide, the following entries are already answered.
>>> label_class("F12S")
"Not satisfied"
>>> label_class("E43V")
"Satisfied"
>>> label_class("Y29F")
"Satisfied"
>>> label_class("Q17C")
"Satisfied"

Query: # check: folding stability dG of "K28D" is greater than or equal to 6 kJ/mol
Response: Not satisfied

Query: # check: folding stability dG of "M25W" is greater than or equal to 6 kJ/mol
Response: Not satisfied

Query: # check: folding stability dG of "N14M" is greater than or equal to 6 kJ/mol
Response: Not satisfied

Query: # check: folding stability dG of "I33V" is greater than or equal to 6 kJ/mol
Response: Satisfied

Query: # check: folding stability dG of "Q17N" is greater than or equal to 6 kJ/mol
Response: Not satisfied

Query: # check: folding stability dG of "G6N" is greater than or equal to 6 kJ/mol
Response: Satisfied

Query: # check: folding stability dG of "G6E" is greater than or equal to 6 kJ/mol
Response: Not satisfied

Query: # check: folding stability dG of "H11P" is greater than or equal to 6 kJ/mol
Response: Not satisfied

Query: # check: folding stability dG of "H4S" is greater than or equal to 6 kJ/mol
Response: Satisfied

Query: # check: folding stability dG of "Q32A" is greater than or equal to 6 kJ/mol
Response: Satisfied

Query: # check: folding stability dG of "R41F" is greater than or equal to 6 kJ/mol
Response: Satisfied

Query: # check: folding stability dG of "M25A" is greater than or equal to 6 kJ/mol
Response: Not satisfied

Query: # check: folding stability dG of "Q30V" is greater than or equal to 6 kJ/mol
Response: Not satisfied

Query: # check: folding stability dG of "V8P" is greater than or equal to 6 kJ/mol
Response: Not satisfied
